Biological target: IDO1 (Homo sapiens)
Sequence (P14902 whole entry): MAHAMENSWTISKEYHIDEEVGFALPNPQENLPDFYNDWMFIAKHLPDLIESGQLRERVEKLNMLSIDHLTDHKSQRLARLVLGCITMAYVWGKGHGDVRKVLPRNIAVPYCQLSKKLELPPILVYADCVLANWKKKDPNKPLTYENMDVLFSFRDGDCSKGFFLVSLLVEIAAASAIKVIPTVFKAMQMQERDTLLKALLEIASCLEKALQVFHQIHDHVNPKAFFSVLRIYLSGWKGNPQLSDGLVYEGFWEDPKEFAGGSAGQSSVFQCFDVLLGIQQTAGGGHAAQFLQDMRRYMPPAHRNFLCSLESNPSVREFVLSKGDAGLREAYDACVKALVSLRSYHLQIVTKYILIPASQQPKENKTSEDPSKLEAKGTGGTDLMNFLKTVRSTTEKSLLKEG
Experiment: IDO1 Cellular Assay in HeLa Cells Stimulated with IFNγ
Format: cell-based
Details: about 48 hours, read-out: Hela IC50
ENDPOINT: IC50 (nM)

# annotated cases, reported IC50 shown
query: Name the recorded IC50 of COC(=O)N1CCCc2nc(C3(NC(=O)c4ccc(Cl)cc4)CCC3)ccc21 , assay system IDO1 (Homo sapiens).
result: 9.9

query: Report IC50 under test system IDO1 (Homo sapiens) for CC(C(=O)Nc1ccc(F)cc1)c1ccc2c(n1)CCCN2C(=O)C1CCOCC1 (stereo not shown) [Example 166] .
result: 16.7

P: Cc1nnc(C(=O)N2CCCc3cc(C(C)C(=O)Nc4ccc(F)cc4)ccc32)o1 (stereo not shown)
Q: CC(NC(=O)c1ccc(Cl)cc1)c1ccc2c(n1)CCCN2C(=O)C1CC1 (single isomer, unassigned) [Example 125]
query: Of P and Q , whose reported IC50 is numerically smaller? Bench note: the answer is the label of the chosen record.
result: Q
(Q: 8.3 nM, P: 16.8 nM)

---

Target: IDO1 (Homo sapiens)
Assay: IDO1 Human Whole Blood Assay
Assay type: cell-based
Set-up: Human whole blood was drawn in sodium heparin coated tubes from healthy internal donors; from tissue; host or cells: human whole blood from healthy donors, stimulated with LPS and IFNγ
Conditions: LPS and IFNγ stimulated
ENDPOINT: IC50 (nM)

query: State the measured IC50 (IDO1 (Homo sapiens)) of O=C(OC1CC1)N1CCc2cc(C3(C(=O)Nc4ccc(Cl)cc4)CCC3)ccc21
result: 90

query: Supply IC50 measured with IDO1 (Homo sapiens) for Cc1nc(C(=O)N2CCCc3cc([C@H](C)C(=O)Nc4ccc(F)cn4)ccc32)no1 .
result: 2610

query: Give measured IC50 for COCCOC(=O)N1CCCc2nc(C(C)NC(=O)c3ccc(Cl)cc3)ccc21 (stereo not shown) (IDO1 (Homo sapiens)).
result: 35

query: Answer briefly: IC50 recorded on IDO1 (Homo sapiens) for CC(C(=O)Nc1ccc(Cl)cc1)c1ccc2c(c1)CC(F)CN2C(=O)c1cccc(Cl)c1 (single isomer, unassigned) [Example 256]
result: 50

query: Tell me its IC50 on IDO1 (Homo sapiens): CC(C)(C(=O)Nc1ccc(Cl)cc1)c1ccc2c(c1)CCCN2C(=O)c1cccc(Cl)c1
result: 2040

query: GET IC50 | system: IDO1 (Homo sapiens) | item: COC[C@H](C)OC(=O)N1CCCc2nc(C(C)NC(=O)c3ccc(Cl)cc3)ccc21 (stereo partly shown)
result: 4950

query: Provide the reported IC50 (system: IDO1 (Homo sapiens)) for Cc1nc(C(=O)N2CCCc3cc(C4(C(=O)Nc5ccc(F)cc5)CCC4)ccc32)no1
result: 90

query: Report measured IC50 on IDO1 (Homo sapiens); entry: CC(C(=O)Nc1ccc(F)cc1)c1ccc2c(n1)CCCN2c1ccnc(C(F)(F)F)n1 (stereo not shown)
result: 198

query: Consider the molecule CC(NC(=O)c1ccc(F)cc1)c1ccc2c(n1)CCCN2C(=O)c1cc(Cl)cc(Cl)c1 (stereo not shown) tested on IDO1 (Homo sapiens); state its IC50.
result: 33

query: Give IC50 for CC(NC(=O)c1ccc(Cl)cc1)c1ccc2c(n1)CCCN2c1ccnc(C(F)(F)F)n1 (stereo not shown) tested on IDO1 (Homo sapiens).
result: 32

P: CC(NC(=O)c1ccc(Cl)cc1)c1ccc2c(n1)CCCN2c1cccc(C2CC2)n1 (stereo not shown)
Q: CC(C(=O)Nc1ccc(F)cc1)c1ccc2c(n1)CCCN2c1ccnc(C2CC2)n1 (stereo not shown) [Example 366]
query: // pick larger IC50 from pair: P vs Q # respond with the chosen item's label
result: Q
(Q: 140 nM, P: 18 nM)

A: Cc1cccc(N2CCCc3nc(C4(NC(=O)c5ccc(Cl)cc5)CCC4)ccc32)n1
B: CC(C(=O)Nc1ccc(F)cc1)c1ccc2c(n1)CCCN2c1ccnc(C2CC2)n1 (stereo not shown) [Example 365]
query: Of A and B , which one carries the higher reported IC50? Give the chosen item's label as your response.
result: B
(B: 254 nM, A: 42 nM)

A: CC(C(=O)Nc1ccc(F)cc1)c1ccc2c(n1)CCCN2C(=O)C1CCOCC1 (stereo not shown)
B: O=C(c1cccc(Cl)c1)N1CCc2nc(C3(C(=O)Nc4ccc(F)cc4)CCC3)ccc21
query: Among A and B , whose measured IC50 is the smaller figure? // output: label of the selected item
result: A
(A: 34 nM, B: 93 nM)

P: CC(C(=O)Nc1ccc(Cl)cc1)c1ccc2c(c1)CC(F)CN2C(=O)c1cccc(Cl)c1 (single isomer, unassigned) [Example 257]
Q: O=C(Nc1ccc(Cl)cc1)C1(c2ccc3c(n2)CCCN3c2cccc(C3CC3)n2)CCC1
R: CC(NC(=O)c1ccc(Cl)cc1)c1ccc2c(n1)CCCN2c1cccc(CO)n1 (stereo not shown)
query: Thanks in advance: please rank these 3 entries by IC50, highest to lowest. Write the labels, ordered according to the request.
result: Q, R, P

Where these numbers come from: patent US12275729B2
